Published IC50 for canine cardiac PDE, CGI (Canis lupus familiaris, UniProt A0A8I3NYE0), assembled from different documents, is shown next.
measurement label: IC50 (nM)

CC1SC(=O)NN=C1c1ccc2c(c1)C(=Nc1ccccc1)C(=O)N2 (stereo not drawn): 1200
CN1CCC(N(C)C(=O)CCCOc2ccc3nc4c(cc3c2)CC(=O)N4)CC1: 300
CCOC(=O)CO/N=C/c1ccc2nc3[nH]c(=O)[nH]c3cc2c1: 26
CC1SC(=O)NN=C1c1ccc2c(c1)C(=NN)C(=O)N2 (stereo not drawn): 2300
O=C(O)CCCOc1ccc2nc3c(cc2c1)CC(=O)N3: 330
O=C1Cc2cc3cc(OCCCCC(=O)N4CCN(CC5CCCCC5)CC4)ccc3nc2N1: 2.4
CC1SC(=O)NN=C1c1ccc2c(c1)C(=NOc1ccccc1)C(=O)N2 (stereo not drawn): 680
CC1SC(=O)NN=C1c1ccc2c(c1)C(=NNC(=N)N)C(=O)N2 (stereo not drawn): 1800
CC1SC(=O)NN=C1c1ccc2c(c1)C(=Cc1ccccc1O)C(=O)N2 (stereo not drawn): 430
CC1SC(=O)NN=C1c1ccc2c(c1)C(=Nc1ccc(N(C)C)cc1)C(=O)N2 (stereo not drawn): 620
Cc1ccc(C(=O)c2ccc3nc4[nH]c(=O)[nH]c4cc3c2)cc1: 26
CC1SC(=O)NN=C1c1ccc2c(c1)C(=C(C#N)C#N)C(=O)N2 (stereo not drawn): 2100

----------
Published IC50 for canine cardiac PDE, CGI (Canis lupus familiaris), assembled from different documents, is shown next.
measurement label: IC50 (nM)

CC1SC(=O)NN=C1c1ccc2c(c1)C(=NNC(N)=S)C(=O)N2 (stereo not drawn): 440
CC1SC(=O)NN=C1c1ccc2c(c1)C(=NNc1ccccc1)C(=O)N2 (stereo not drawn): 130
CCOC(=O)CCCOc1ccc2nc3c(cc2c1)CC(=O)N3: 290
CON=C1C(=O)Nc2ccc(C3=NNC(=O)SC3C)cc21 (stereo not drawn): 1300
CC1SC(=O)NN=C1c1ccc2c(c1)C(=Cc1ccncc1)C(=O)N2 (stereo not drawn): 1900
O=C(c1ccccc1)c1ccc2nc3[nH]c(=O)[nH]c3cc2c1: 10
CC1SC(=O)NN=C1c1ccc2c(c1)C(=Cc1ccccc1)C(=O)N2 (stereo not drawn): 350
CCOC(=O)CCCCOc1ccc2nc3c(cc2c1)CC(=O)N3: 62
O=C1Cc2cc3cc(OCCCC(=O)N4CCN(CC5CCCCC5)CC4)ccc3nc2N1: 18
